Where do the numbers come from? From patent US9663512B2.

This section presents compounds with their documented IC50 values.
- subject.of.test: BIR3 domain of human XIAP (Homo sapiens, UniProt P98170)
- Construct: BIR3 domain of human XIAP (residues 252-350) fused to a His-tag; His-tag (cleaved yes)
- Sequence (P98170 252-350): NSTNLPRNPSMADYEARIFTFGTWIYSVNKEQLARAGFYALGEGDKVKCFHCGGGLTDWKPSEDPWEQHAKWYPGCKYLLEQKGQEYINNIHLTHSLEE
- test.name: XIAP in vitro competitive displacement binding assay (fluorescence polarization)
- protocol.conditions: XIAP BIR3 fluorescence polarization displacement; average (e.g. geometric mean); read-out: Xiap IC50 or PI (IC50)
Counter-ions that a name gives are not always drawn.
recorded.endpoint: IC50 (nM)

[[record]]
compound = "Cc1cc(C)n(C[C@H]2CN[C@H](C)CN2CC(=O)N2CC(C)(C)c3ncc(Cc4ccc(F)cc4)cc32)n1 [Example 1, dihydrochloride]"
subject_of_test = "BIR3 domain of human XIAP (Homo sapiens, UniProt P98170)"
recorded_value = 91

[[record]]
compound = "C[C@@H]1CN(CC(=O)N2CC(C)(C)c3ncc(Cc4ccc(F)cc4)cc32)[C@@H](Cn2ccnc2C(F)(F)F)CN1 [Example 5, dihydrochloride]"
subject_of_test = "BIR3 domain of human XIAP (Homo sapiens, UniProt P98170)"
recorded_value = 110

[[record]]
compound = "Cc1cnnn1C[C@H]1CN[C@H](C)CN1CC(=O)N1CC(C)(C)c2ncc(Cc3ccc(F)cc3)cc21 [Example 15, dihydrochloride]"
subject_of_test = "BIR3 domain of human XIAP (Homo sapiens, UniProt P98170)"
recorded_value = 220

